System: Plasmodium berghei
Test: Screen against P. berghei liver stage (PbLuc), transformed with Luciferase, at 2uM
Type: functional, HepG2
Details: tested at 2 uM
Screen size: about 68,000 compounds; about 2,700 (4%) showed an effect of 50% or more. What follows is part of a selection rich in strong results, with near analogues and random picks from the rest.
Property: INHIBITION (%)
Field: numeric (%). Do not append units.

# annotated cases, reported INHIBITION shown
CC(=O)N(C)C1CCN(c2ncc3c(n2)CCN3c2ccccc2)C1 (stereo not drawn); -13.72
Cc1cc(CN2CCN(C(=O)NCc3ccc(C)s3)CC2)on1; 6.63
CCOCCNC1(c2ccc(Cl)cc2)CCOCC1; 32.26
CC(O)CC(C)(C)CNC(=O)NCc1cccc(-n2cncn2)c1 (stereo not drawn); 1.22
CCS(=O)(=O)c1ncc(CN(C)Cc2ccccn2)n1CCOC; -40.94

# INHIBITION of O=C1CC(NS(=O)(=O)c2ccc(Br)cc2)CN1 (stereo not drawn) = 27.9

Entry Cc1nc(C(C)Nc2nc3c(s2)c(C)nn3C)n[nH]1 (stereo not drawn) ; INHIBITION = 5.48

response.value for CC(NC(=O)Nc1ccc(-n2cncn2)cc1)C(=O)NC(C)(C)C (stereo not drawn) (field: INHIBITION) = 12.01

// CN1CCCC2(CCN(S(=O)(=O)c3c(Cl)nc4sccn34)C2)C1=O (stereo not drawn) : INHIBITION value = 66.11

`CCN(C)C(=O)c1cccc(S(=O)(=O)NCCc2csc(N)n2)c1` yielded INHIBITION of 67.22

* * *

System: Plasmodium berghei
Experiment: Screen against P. berghei liver stage (PbLuc), transformed with Luciferase, at 2uM
Format: functional, HepG2
Settings: tested at 2 uM
About 2,700 (4%) of roughly 68,000 compounds showed an effect of 50% or more. The list comes from a sample in which strong results are over-represented; it also holds close analogues and randomly drawn compounds.
Property: INHIBITION

CS(=O)(=O)N1C[C@@H]2C[C@H](C(=O)N3CCOCC3)[C@H](C1)O2; 54.01%
COCCNc1ncc(-c2cccc(OC)c2)c(-c2nccn2C)n1; 54.87%
CC(C)N1CCOC(Cc2nn3c(Cc4ccccc4)nnc3s2)C1 (stereo unspecified); 20.29%
COC[C@]12COC[C@H]1CN(C(=O)c1ccc(F)cc1C)C2; 57.85%

Field INHIBITION (entry `COc1ccc(S(=O)(=O)NC(=O)COC2CCCC2)cc1` ) reads -43.47%

The compound listed as `O=C(c1ccnnc1)N1C[C@@H]2COC[C@]2(COCC2CC2)C1` has a reported INHIBITION of -57.61%

Lab note: measured INHIBITION of `CCOCCCNc1ncc(-c2cccc(F)c2)c(-c2nccn2C)n1` was 55.72%

Recorded result, `NC(=O)c1nc2c(s1)CCN(Cc1ccccc1)CC2` , INHIBITION: -14.74%

Data point: COC1COC2(CCN(Cc3cccc(Cl)c3)CC2)C1 (stereo unspecified) ; INHIBITION = 23.81%

For `CCCS(=O)(=O)N1C[C@@H]2C[C@H](C(=O)N3CCOCC3)[C@H](C1)O2` the compound record lists INHIBITION as 32.59%

INHIBITION for `O=C(CCNc1ncccn1)NCc1csc(Br)c1` is 33.47%

Given item `CC(C)CS(=O)(=O)N1C[C@@H]2C[C@H](C(=O)N3CCN(C)CC3)[C@H](C1)O2` , the value recorded as its INHIBITION is -26.46%

// field: INHIBITION; key: `CC(C)CS(=O)(=O)N1C[C@@H]2C[C@H](C(=O)N3CCOCC3)[C@H](C1)O2` ; value = 15.36%

Given item `CCc1ncc(CN2C[C@@H]3CC[C@H]2CN(C(=O)C2CCC2)C3)cn1` , the value recorded as its INHIBITION is 12.3%

# compound `N[C@H]1CN(C(=O)c2ccccc2OCc2ccccc2)C[C@@H]1C1CC1` ; its INHIBITION = 13.86%

compound `CC(=O)c1ccc(CNC(=O)c2cc(C#N)cn2C)nc1C` , INHIBITION observed: -2.44%

The recorded INHIBITION for `COc1cccc(S(=O)(=O)NC(=O)COc2c(C)cccc2C)c1` is 60.31%

// field: INHIBITION; key: `CC(C)n1cc(-n2cc3nc(N4CCOCC4)[nH]cc-3c2=O)cn1` ; value = 53.22%

Sure, the documented INHIBITION for `Cc1cc2c(=O)n3c(nc2s1)CCN(C(=O)c1nn(C)cc1Cl)CC3` is 26.56%

Sure, the documented INHIBITION for `COc1cccc(S(=O)(=O)NC(=O)COC2CCCCC2)c1` is -1.02%

The compound `O=C(CCNc1ncccn1)NCc1ccc(Br)s1` showed INHIBITION equal to 64.22%

Reported INHIBITION for `COCCCNc1ncc(-c2cccc(F)c2)c(-c2nccn2C)n1` was -18.57%

src = ChEMBL document CHEMBL4513216
